testedOn: T1, Cynomolgus CD3 on HSC-F cells (cynomolgus, UniProt Q95LI5 22-198)
T1 construct: whole, on cells; Target is the endogenous CD3 complex on cells; also called Cyno CD3 HSC-F cells; Cyno CD3+ HSC-F cells
assayMethodText: flow cytometry, 100 nM IgG
measurementType: MFI

• Antibody No. V009 (ADI-70326) IgG1 (antibody, V domains shown, IgG1, CHO-produced) VH: QVQLVQSGAEVKKPGASVKVSCKASGFDIKDYYMHWVRQAPGQRLEWIGWIELENADTVYDAKFQGRVTITRDTSASTAYMELSSLRSEDTAVYYCARDAYGRYFYDVWGQGTLVTVSS VL: DIVMSQSPDSLAVSLGERATINCKSSQSLLNARTGKNYLAWYQQKPGQPPKLLIYWASTRSSGVPDRFSGSGSGTDFTLTISSLQAEDVAVYYCVQSYFRRTFGGGTKVEIK = 6230 MFI
• Antibody No. A001 (ADI-26906) IgG1 (antibody, V domains shown, IgG1, CHO-produced) VH: QVQLVQSGAEVKKPGASVKVSCKASGFNIKDYYMHWVRQAPGQRLEWMGWIDLENANTIYDAKFQGRVTITRDTSASTAYMELSSLRSEDTAVYYCARDAYGRYFYDVWGQGTLVTVSS VL: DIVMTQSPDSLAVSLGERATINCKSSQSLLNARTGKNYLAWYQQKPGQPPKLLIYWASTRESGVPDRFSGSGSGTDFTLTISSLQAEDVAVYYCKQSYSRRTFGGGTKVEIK = 6050 MFI
• Antibody No. V007 (ADI-67450) IgG1 (antibody, V domains shown, IgG1, CHO-produced) VH: QVQLVQSGAEVKKPGASVKVSCKASGFNIDDYYMHWVRQAPGQRLEWMGWIDLENANTIDDAKFQGRVTITRDTSASTAYMELSSLRSEDTAVYYCARDAYGRYFYDVWGQGTLVTVSS VL: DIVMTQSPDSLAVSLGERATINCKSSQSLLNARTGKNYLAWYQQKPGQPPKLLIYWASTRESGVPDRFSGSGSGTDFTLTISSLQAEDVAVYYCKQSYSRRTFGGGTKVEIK = 5490 MFI
